// reported growth for each item listed
Tested on: T-47D breast
Test: NCI-60 one-dose screen, 48 h (100 = growth as untreated, 0 = no growth, -100 = all killed)
Settings: 10 µM unless noted
Compounds without any hit were thinned out: in the full panel of roughly 83,000, 20% have a hit.
# output: bare number, implied unit %

Record excerpt, results attached:
{"molecule": "CCn1cnc2c1c(=O)[nH]c(=O)n2CC1CCC(CNS(=O)(=O)c2ccc(OC3CCOCC3)c(F)c2)CC1 (stereo not given)", "number": 19.9}
{"molecule": "COc1cc(CCC[P+](c2ccccc2)(c2ccccc2)c2ccccc2)c(OC)c(OC)c1OC", "number": 63.5}
{"molecule": "c1ccc(OCc2nnc(-c3ccc(Oc4ccccc4)cc3)o2)cc1", "number": 74.3}

Name the recorded growth for CCc1cccc2c3c(sc12)C(c1ccc(F)cc1)C(C#N)=C(N)O3 (stereo not given) . 42.1

// lookup growth for Cc1cc(O)c(C2=NN(c3ccc(S(N)(=O)=O)cc3)C(c3ccccc3O)C2)cc1Cl (stereo not given) 21.6
